Cited source for all entries: patent US20040018971A1

Measurement target: HLA-A*0101 (human)
Test summary: competition with 125I-labelled probe peptide for purified HLA-A*0101, gel filtration
Cond: remark: other sources report otherwise; scale: ratio
Binary label based on relative binding ratio with cut-off 3: below gives rule met, not below gives rule not met.

Please check: relative binding ratio for VMAGVGSPY [HER2/neu peptide, position 773, 9 amino acids] , strictly under 3 or not?
rule met

Please do the same for LLDIDETEY [HER2/neu peptide, position 869, 9 amino acids] as well.
rule not met

Moving on to the next binder: CMQIAKGMSY [HER2/neu peptide, position 826, 10 amino acids]
rule met

Another: FTHQSDVWSY [HER2/neu peptide, position 899, 10 amino acids]
rule met

Can you handle FSPAFDNLYY [HER2/neu peptide, position 1213, 10 amino acids] next?
rule not met
